Reference source for all entries: patent US9884821B2

system: AMPK; assay: AMPK activation effect (AMPK [pT172] ELISA) in MCF7 cells; assay type: cell-based, human; settings: concentration at which AMPK activation reached 150%, 24 hours
# label = true if AC150 >= 4 µM else false

>>> class_name("Cl.N=C(NC(=N)N1CC=CC1)Nc1ccc(OC(F)(F)F)c(Cl)c1 [Example 10]")
"false"
>>> class_name("CC1=CCN(C(=N)NC(=N)Nc2ccc(C(F)(F)F)cc2)C1.Cl [Example 16]")
"false"
>>> class_name("Cl.N=C(NC(=N)N1CC=CC1)Nc1ccc(Br)cc1 [Example 9]")
"true"
>>> class_name("CC1CCCCN1C(=N)NC(=N)Nc1ccc(Cl)cc1.Cl (stereo not shown) [Example 77]")
"true"
>>> class_name("Cc1cccc(NC(=N)NC(=N)N2CC=CC2)c1.Cl [Example 51]")
"false"

Enquiry: // inclusive: AC150 at least 4 µM? input: CC1CCCN(C(=N)NC(=N)Nc2cccc(OC(F)(F)F)c2)C1.Cl (stereo not shown) [Example 83]
Return: false

Enquiry: // inclusive: AC150 at least 4 µM? input: CC1CCCC(C)N1C(=N)NC(=N)Nc1cccc(OC(F)(F)F)c1.Cl (stereo not shown) [Example 90]
Return: false

Enquiry: // inclusive: AC150 at least 4 µM? input: Cl.N=C(NC(=N)N1CC=CC1)Nc1ccccc1 [Example 44]
Return: false

Enquiry: // inclusive: AC150 at least 4 µM? input: Cl.N=C(NC(=N)N1CC=CCC1)Nc1ccc(F)cc1 [Example 37]
Return: true

Enquiry: // inclusive: AC150 at least 4 µM? input: Cl.N=C(NCc1cccc(C(F)(F)F)c1)NC(=N)N1CC=CC1 [Example 12]
Return: true

###

system: AMPK; test: AMPK activation effect (AMPK [pT172] ELISA) in MCF7 cells; format: cell-based, human; details: concentration at which AMPK activation reached 150%, 24 hours
assay_metric: AC150 (µM)
Express it in µM; write the number only.

>>> test_result("CCCCNC(=N)NC(=N)N1CC=CCC1.Cl")
16.6
>>> test_result("COc1cc(NC(=N)NC(=N)N2CC=CC2)cc(OC)c1.Cl")
4.8
>>> test_result("CC1CCCN(C(=N)NC(=N)NCc2ccc(C(F)(F)F)cc2)C1.Cl (stereo not shown)")
2.3
>>> test_result("CC1CCCCN1C(=N)NC(=N)Nc1ccc(C(F)(F)F)cc1.Cl (stereo not shown)")
2.0
>>> test_result("Cc1cccc(NC(=N)NC(=N)N2CC=CCC2)c1.Cl")
1.9
>>> test_result("Cl.N=C(NC(=N)N1CC=CC1)Nc1ccc(OC(F)(F)F)cc1")
5.0
>>> test_result("CC1=CCN(C(=N)NC(=N)NCc2ccc(Cl)c(C(F)(F)F)c2)C1.Cl")
13.5
>>> test_result("CC1CCCN(C(=N)NC(=N)NCc2ccc(Cl)cc2)C1.Cl (stereo not shown)")
6.2
>>> test_result("CC1CCCC(C)N1C(=N)NC(=N)Nc1ccc(F)c(C(F)(F)F)c1.Cl (stereo not shown)")
2.0
>>> test_result("Cl.N=C(NCc1ccc(Cl)c(C(F)(F)F)c1)NC(=N)N1CC=CCC1")
1.8

Lookup result for Cl.N=C(NC(=N)N1CC=CCC1)Nc1cccc(OC(F)(F)F)c1 ; measured AC150: 0.53

Lookup result for Cl.N=C(NCc1ccc(C(F)(F)F)cc1)NC(=N)N1CC=CCC1 ; measured AC150: 2.1

Lookup result for COc1ccc(NC(=N)NC(=N)N2CC=CC2)cc1.Cl ; measured AC150: 14.7

###

Test system: AMPK
Test: AMPK activation effect (AMPK [pT172] ELISA) in MCF7 cells
Type: cell-based, human
Details: concentration at which AMPK activation reached 150%, 24 hours
Procedure: ELISA kit (Invitrogen, Catalog No. KH00651). MCF7 cells were cultured in a DMEM medium supplemented with 10% fatal bovine serum (commercially available from Gibco Life Technologies (US)). Thereafter, the cultured MCF7 cells were put into a 6-well plate with approximately 5×10^5 cells per well, and cultured in an incubator supplied with 5% CO2. Culture media were treated with the derivatives synthesized in the Examples at concentrations of 5, 10 and 50 uM, and then cultured for 24 hours. […]
assay_metric: AC150
Please state the value followed by its unit.

>>> test_result("CC1CCCCN1C(=N)NC(=N)Nc1cccc(OC(F)(F)F)c1.Cl (stereo not drawn)")
"2.0 µM"
>>> test_result("CC1CCCN(C(=N)NC(=N)Nc2ccc(Cl)cc2)C1.Cl (stereo not drawn)")
"1.9 µM"

Then there is this compound:
The recorded AC150 with AMPK for COc1ccc(NC(=N)NC(=N)N2CC=CCC2)cc1.Cl was 37.8 µM

###

tested on: HCT116 cells; experiment: Effect of inhibiting cancer cell proliferation (MTT) in HCT116 cells; format: cell-based, human; conditions: Homo sapiens, HCT-116, 48 h, 25 μM, read-out: Cell growth inhibition (%) at 25 μM
Form field: inhibition at 25 µM (one value per entry).
Express it in %; write the number only.

>>> test_result("CC1CCCN(C(=N)NC(=N)Nc2ccc(F)cc2)C1.Cl (centres unmarked) [Example 67, hydrochloride]")
100

Lookup result for CC1CCCC(C)N1C(=N)NC(=N)Nc1ccc(F)c(C(F)(F)F)c1.Cl (centres unmarked) [Example 93, hydrochloride] ; measured inhibition at 25 µM: 100

Lookup result for CC1CCCN(C(=N)NC(=N)NCc2ccc(OC(F)(F)F)cc2)C1.Cl (centres unmarked) [Example 84, hydrochloride] ; measured inhibition at 25 µM: 97

Lookup result for CC1CCCN(C(=N)NC(=N)Nc2ccc(C(F)(F)F)c(F)c2)C1.Cl (centres unmarked) [Example 70, hydrochloride] ; measured inhibition at 25 µM: 100

Lookup result for CC1CCCN(C(=N)NC(=N)Nc2ccc(Cl)c(C(F)(F)F)c2)C1.Cl (centres unmarked) [Example 69, hydrochloride] ; measured inhibition at 25 µM: 100

Lookup result for CC1CCCCN1C(=N)NC(=N)Nc1cccc(OC(F)(F)F)c1.Cl (centres unmarked) [Example 73, hydrochloride] ; measured inhibition at 25 µM: 100

Lookup result for CC1CCCN(C(=N)NC(=N)Nc2ccc(Br)cc2)C1.Cl (centres unmarked) [Example 68, hydrochloride] ; measured inhibition at 25 µM: 29.4

Lookup result for CC1CCCN(C(=N)NC(=N)Nc2ccc(C(F)(F)F)cc2)C1.Cl (centres unmarked) [Example 81, hydrochloride] ; measured inhibition at 25 µM: 100

###

Form field: AC150 (one value per entry).
tested on: AMPK; test: AMPK activation effect (AMPK [pT172] ELISA) in MCF7 cells; format: cell-based, human; conditions: concentration at which AMPK activation reached 150%, 24 hours
Express it in µM; write the number only.

>>> test_result("CCCNC(=N)NC(=N)N1CC=CCC1.Cl [Example 60]")
12.4
>>> test_result("CCCCCCNC(=N)NC(=N)N1CC=CCC1.Cl [Example 53]")
2.3
>>> test_result("Cl.N=C(NCc1ccc(OC(F)(F)F)cc1)NC(=N)N1CC=CCC1 [Example 54]")
0.87
>>> test_result("CC1CCCN(C(=N)NC(=N)Nc2cccc(C(F)(F)F)c2)C1.Cl (stereo not drawn) [Example 88]")
0.7
>>> test_result("CC1CCCCN1C(=N)NC(=N)Nc1cccc(C(F)(F)F)c1.Cl (stereo not drawn) [Example 79]")
1.9
>>> test_result("Cl.N=C(NC(=N)N1CC=CC1)Nc1ccc(C(F)(F)F)c(F)c1 [Example 47]")
1.0
>>> test_result("CC1CCCN(C(=N)NC(=N)Nc2ccc(Cl)c(C(F)(F)F)c2)C1.Cl (stereo not drawn) [Example 69]")
1.2
>>> test_result("CC1CCCN(C(=N)NC(=N)Nc2ccc(C(F)(F)F)cc2)C1.Cl (stereo not drawn) [Example 81]")
1.9

Then there is this compound:
Lookup result for COc1cccc(NC(=N)NC(=N)N2CC=CCC2)c1.Cl [Example 41] ; measured AC150: 22.4

###

system: AMPK; test: AMPK activation effect (AMPK [pT172] ELISA) in MCF7 cells; format: cell-based, human; conditions: concentration at which AMPK activation reached 150%, 24 hours
Form field: AC150 (one value per entry).
Express it in µM; write the number only.

>>> test_result("Cl.N=C(NC(=N)N1CC=CCC1)Nc1ccccc1 [Example 39]")
67.2
>>> test_result("CC1CCCC(C)N1C(=N)NC(=N)Nc1ccc(Cl)cc1.Cl (stereo not shown) [Example 96]")
1.8
>>> test_result("Cl.N=C(NC(=N)N1CC=CCC1)Nc1ccc(OC(F)(F)F)c(Cl)c1 [Example 11]")
1.4
>>> test_result("CC1=CCN(C(=N)NC(=N)NCc2ccc(C(F)(F)F)cc2)C1.Cl [Example 26]")
0.68
>>> test_result("Cl.N=C(NC(=N)N1CC=CC1)Nc1ccc(F)c(C(F)(F)F)c1 [Example 46]")
1.6

Lookup result for COc1cccc(NC(=N)NC(=N)N2CC=CC2)c1.Cl [Example 43] ; measured AC150: 4.7

Lookup result for CC1CCCC(C)N1C(=N)NC(=N)Nc1ccc(Cl)c(C(F)(F)F)c1.Cl (stereo not shown) [Example 94] ; measured AC150: 1.1

Lookup result for Cl.N=C(NC(=N)N1CC=CCC1)Nc1cccc(C(F)(F)F)c1 [Example 31] ; measured AC150: 1.8

Lookup result for Cl.N=C(NCc1cccc(C(F)(F)F)c1)NC(=N)N1CC=CCC1 [Example 57] ; measured AC150: 2.7

Lookup result for COc1ccc(NC(=N)NC(=N)N2CC=C(C)C2)cc1.Cl [Example 22] ; measured AC150: 24.5

Lookup result for CC1CCCN(C(=N)NC(=N)NCc2ccc(OC(F)(F)F)cc2)C1.Cl (stereo not shown) [Example 84] ; measured AC150: 1.1

Lookup result for Cl.N=C(NC(=N)N1CC=CCC1)Nc1ccc(Cl)cc1 [Example 35] ; measured AC150: 2.4
